Entries and their Kass Plasmin values follow.
Target: Human plasmin (Homo sapiens)
Construct: Human plasmin is purchased from Boehringer Mannheim; purchased Boehringer Mannheim, Indianapolis, Ind
Sequence (P00747 581-810 limits assumed): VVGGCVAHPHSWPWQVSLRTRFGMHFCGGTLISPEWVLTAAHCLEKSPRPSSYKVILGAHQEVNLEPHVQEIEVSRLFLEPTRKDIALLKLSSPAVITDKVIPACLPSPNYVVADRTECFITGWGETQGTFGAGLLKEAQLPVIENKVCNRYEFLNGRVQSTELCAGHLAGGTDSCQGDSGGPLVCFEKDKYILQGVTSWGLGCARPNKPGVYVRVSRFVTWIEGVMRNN
Sequence (P00747 97-580 partner limits assumed): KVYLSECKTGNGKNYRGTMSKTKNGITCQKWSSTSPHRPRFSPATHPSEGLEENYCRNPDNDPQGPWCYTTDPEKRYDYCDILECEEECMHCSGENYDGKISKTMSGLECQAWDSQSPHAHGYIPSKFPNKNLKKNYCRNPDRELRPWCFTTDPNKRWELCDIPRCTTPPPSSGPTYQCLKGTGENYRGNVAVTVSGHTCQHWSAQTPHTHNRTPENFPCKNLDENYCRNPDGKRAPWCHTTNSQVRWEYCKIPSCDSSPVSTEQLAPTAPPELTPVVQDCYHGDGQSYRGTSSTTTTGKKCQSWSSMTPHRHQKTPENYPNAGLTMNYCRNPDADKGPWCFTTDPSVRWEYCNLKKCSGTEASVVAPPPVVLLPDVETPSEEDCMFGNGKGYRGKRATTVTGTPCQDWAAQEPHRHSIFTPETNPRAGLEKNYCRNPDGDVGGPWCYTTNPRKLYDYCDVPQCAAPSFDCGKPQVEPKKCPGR
Assay: Serine protease inhibition (Kass), plasmin
Type: biochemical
measurement type: Kass Plasmin (L/mol × 10^6)

>>> result("Cl.N=C(N)NCCC[C@@H](C=O)NC(=O)[C@@H]1CCCN1C(=O)[C@@H](Cc1ccccc1)NS(=O)(=O)c1ccccc1")
19
>>> result("CCCN(CCC)S(=O)(=O)c1ccc(C(=O)N[C@H](Cc2ccccc2)C(=O)N2CCC[C@H]2C(=O)N[C@H](C=O)CCCNC(=N)N)cc1.Cl")
0.86
>>> result("CCCC(Cc1ccccc1)(NC(=O)OCC)C(=O)N1CCC[C@H]1C(=O)N[C@H](C=O)CCCNC(=N)N.Cl (stereo partly drawn)")
0.074

----------
Test: Index of Bioavailability (plasma TT AUC, oral vs i.v.)
Format: in vivo
Conditions: rats, oral vs i.v. bolus
Non-standard residues stand in square brackets, D forms with d. Residues, ends and D or L forms follow the SMILES beside them. dThz = O=C(O)[C@H]1CSCN1
Could you label it T if measured Percent Relative Activity (Index of Bioavailability) is 10% or higher, and F otherwise?

>>> cat("CNC(CC(=O)N1CCC[C@H]1C(=O)N[C@H](C=O)CCCNC(=N)N)C1CCCCC1.CNC(CC(=O)N1CCC[C@H]1C(=O)N[C@H](C=O)CCCNC(=N)N)C1CCCCC1.Cl.Cl.Cl.Cl.O (stereo partly drawn)")
"T"
>>> cat("CS(=O)(=O)N[C@H](Cc1ccccc1)C(=O)N1CCC[C@H]1C(=O)N[C@H](C=O)CCCNC(=N)N.Cl")
"T"
>>> cat("Cl.Cn1c(C(=O)N[C@H](Cc2ccccc2)C(=O)N2CCC[C@H]2C(=O)N[C@H](C=O)CCCNC(=N)N)cc2ccccc21")
"F"
>>> cat("CCOC(=O)N[C@H](Cc1ccccc1)C(=O)N1CCC[C@H]1C(=O)N[C@H](C=O)CCCNC(=N)N.Cl")
"T"
>>> cat("Cl.Cl.N=C(N)NCCC[C@@H](C=O)NC(=O)[C@@H]1CCCN1C(=O)[C@H]1CSCN1 [Example 4] (H-[dThz]-Pro-Arg-aldehyde)")
"T"
>>> cat("Cl.N=C(N)NCCC[C@@H](C=O)NC(=O)[C@@H]1CCCN1C(=O)[C@@H](Cc1ccccc1)NS(=O)(=O)c1ccc(F)cc1F")
"F"
>>> cat("Cl.Cl.N=C(N)NCCC[C@@H](C=O)NC(=O)[C@@H]1CCCN1C(=O)C1NCCCC2CCCCC21 (mixture of isomers)")
"T"
>>> cat("Cl.Cl.Cl.N=C(N)NCCC[C@@H](C=O)NC(=O)[C@@H]1CCCN1C(=O)C1CCCCC1N.O (stereo partly drawn)")
"T"
>>> cat("Cl.Cl.N=C(N)NCCC[C@@H](C=O)NC(=O)[C@@H]1CCCN1C(=O)C1CNCCN1 (stereo partly drawn)")
"T"
>>> cat("Cl.N=C(N)NCCC[C@@H](C=O)NC(=O)[C@@H]1CCCN1C(=O)[C@@H](Cc1ccccc1)NC(=O)c1cc2ccccc2cn1")
"F"
>>> cat("CCCS(=O)(=O)N[C@H](Cc1ccccc1)C(=O)N1CCC[C@H]1C(=O)N[C@H](C=O)CCCNC(=N)N.Cl")
"T"
>>> cat("N=C(N)NCCCC(C=O)NC(=O)C1CCCN1C(=O)C1CC2CCCCC2CN1.O=S(=O)(O)O [80 (Step F), D-3-(cis)Piq-Pro-Arg-H.H2 SO4]")
"T"
>>> cat("Cl.N=C(N)NCCC[C@@H](C=O)NC(=O)[C@@H]1CCCN1C(=O)[C@@H](Cc1ccccc1)NCC1CCCCC1")
"F"
>>> cat("CCCCS(=O)(=O)N[C@H](Cc1ccccc1)C(=O)N1CCC[C@H]1C(=O)N[C@H](C=O)CCCNC(=N)N.Cl")
"T"
